Test system: SW480
ASSAY EXPLANATION: TCF/Wnt firefly luciferase reporter signal relative to plate median (fraction of plate median); higher = higher Wnt reporter signal
DETAILS: 5 µM; treatment time 24 h; reporter: 7TFP
READOUT NAME: TCF/Wnt firefly luciferase reporter signal
Note: the reply should be a number with no unit written.

Recorded results for 5 compounds are shown here.
molecule_smiles=CN(C/C=C/C#CC(C)(C)C)Cc1cccc2ccccc12 numeric_value=1.07
molecule_smiles=Nc1nc2c(ncn2[C@H]2C[C@H](O)[C@@H](CO)O2)c(=O)[nH]1 numeric_value=0.997
molecule_smiles=CN(C)[C@@H]1C(O)=C(C(N)=O)C(=O)[C@@]2(O)C(O)=C3C(=O)c4c(O)cccc4[C@@](C)(O)[C@H]3[C@H](O)[C@@H]12 numeric_value=1
molecule_smiles=CC(C)[C@H](NC(=O)[C@@H]1CCCN1)C(=O)N1CCNC(=O)C1=O numeric_value=0.962
molecule_smiles=CC(=O)O[C@H]1CC[C@]2(C)[C@H]3C(=O)C=C4[C@@H]5[C@@H](C)[C@H](C)CC[C@]5(C(=O)O)CC[C@@]4(C)[C@]3(C)CC[C@H]2C1(C)C numeric_value=1.09

Let us examine a further case.
INPUT: Enter reported TCF/Wnt firefly luciferase reporter signal observed with SW480 for Cc1ccc(C(=O)c2ccc(CC(=O)O)n2C)cc1
OUTPUT: 1.06

* * *

Tested on: SW480
ASSAY EXPLANATION: TCF/Wnt firefly luciferase reporter signal relative to plate median (fraction of plate median); higher = higher Wnt reporter signal
DETAILS: 5 µM; treatment time 24 h; reporter: 7TFP
READOUT NAME: TCF/Wnt firefly luciferase reporter signal
Note: the reply should be a number with no unit written.

Recorded results for 5 compounds are shown here.
compound=O=c1c(O)c(-c2ccccc2)oc2ccccc12 numeric_value=0.977
compound=O=c1c(-c2ccc(O)cc2)coc2cc(O)ccc12 numeric_value=0.976
compound=NC(=O)c1ccc([N+](=O)[O-])cc1Cl numeric_value=0.967
compound=COc1c(OC)c2occc2c2oc(=O)ccc12 numeric_value=0.948
compound="COC(C)c1cccc2nc3c(C(=O)O)cccc3nc12 (stereo not given)" numeric_value=1.15

INPUT: Bench note: what TCF/Wnt firefly luciferase reporter signal did O=C([O-])c1ccccc1O.[Na+] show?
OUTPUT: 1.02

INPUT: Bench note: what TCF/Wnt firefly luciferase reporter signal did CN(CCOc1ccc(CC2SC(=O)NC2=O)cc1)c1ccccn1 (stereo not given) show?
OUTPUT: 0.906

INPUT: Bench note: what TCF/Wnt firefly luciferase reporter signal did CC1(C)CC[C@]2(C)CC[C@]3(C)C(=CC[C@@H]4[C@@]5(C)CC[C@H](O)C(C)(C)[C@@H]5CC[C@]43C)[C@@H]2C1 show?
OUTPUT: 0.923

INPUT: Bench note: what TCF/Wnt firefly luciferase reporter signal did CCc1cnn2c(NCc3ccc[n+]([O-])c3)cc(N3CCCC[C@H]3CCO)nc12 show?
OUTPUT: 0.789

* * *

Tested on: DLD1
ASSAY EXPLANATION: TCF/Wnt firefly luciferase reporter signal relative to plate median (fraction of plate median); higher = higher Wnt reporter signal
DETAILS: 5 µM; treatment time 24 h; reporter: 7TFP
READOUT NAME: TCF/Wnt firefly luciferase reporter signal

Recorded results for 2 molecules are shown here.
molecule=C=C1[C@@H]([C@@]2(C)C=CC(=O)C(C)(C)[C@@H]2CC(=O)OC)CC[C@@]2(C)[C@H](c3ccoc3)OC(=O)[C@H]3O[C@]132 assayed_target=DLD1 result=0.978
molecule=O=C(O)[C@H](O)[C@@](O)(Cc1ccc(O)cc1)C(=O)O assayed_target=DLD1 result=1

INPUT: Bench note: what TCF/Wnt firefly luciferase reporter signal did CC(C)=CCC[C@@H](C)[C@@H]1CC[C@]2(C)C3=C(CC[C@@]12C)[C@@]1(C)CC[C@H](O)C(C)(C)[C@@H]1CC3 show?
OUTPUT: 0.918

INPUT: Bench note: what TCF/Wnt firefly luciferase reporter signal did CC(=O)c1oc2cc3[nH]c(=O)cc(C)c3cc2c1C [2-Acetyl-3,5-dimethylfuro[3,2-g]quinolin-7-one (VFT-05)] show?
OUTPUT: 0.882

Reference source: the supplement of paper PMC6522484
